tested-system: ScAbd1-L59P-Y416C (Saccharomyces cerevisiae, UniProt P32783, L59P/Y416C)
Construct: aa 1–436); made in house; host or cells: Escherichia coli BL21 (DE3) CodonPlus RIL
Sequence (P32783 whole entry L59P/Y416C, the tested form may be a part): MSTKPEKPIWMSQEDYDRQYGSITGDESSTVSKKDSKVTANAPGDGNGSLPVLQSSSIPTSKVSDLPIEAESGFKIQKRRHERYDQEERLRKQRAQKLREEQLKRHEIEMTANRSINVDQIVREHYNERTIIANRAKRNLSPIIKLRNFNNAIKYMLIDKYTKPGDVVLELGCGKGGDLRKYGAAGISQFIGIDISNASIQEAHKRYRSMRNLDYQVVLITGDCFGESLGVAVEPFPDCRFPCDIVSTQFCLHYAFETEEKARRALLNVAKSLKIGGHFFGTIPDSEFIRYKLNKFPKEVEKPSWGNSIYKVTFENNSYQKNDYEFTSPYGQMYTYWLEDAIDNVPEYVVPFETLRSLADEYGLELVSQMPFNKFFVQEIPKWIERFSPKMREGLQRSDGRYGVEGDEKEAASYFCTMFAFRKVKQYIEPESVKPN
assay-procedure: Inhibition of GpppA methylation by ScAbd1-L59P-Y416C
Format: biochemical
recorded-conditions: ScAbd1-L59P-Y416C 250 nM, 100 μM SAM, 250 μM GpppA, 30°C, 20 min; read-out: SAH IC50
value-type: pIC50
Remember the convention: pIC50 equals -log10 of concentration in molar.

I am curious: what pIC50 value has been reported for "Nc1ncnc2c1ncn2[C@@H]1O[C@H](CSCC[C@H](N)C(=O)O)[C@@H](O)[C@H]1O" ?
4.47

====

tested-system: ScAbd1-Y416N-R422H (Saccharomyces cerevisiae, UniProt P32783, R422H/Y416N)
Construct: aa 1–436); made in house; host or cells: Escherichia coli BL21 (DE3) CodonPlus RIL
Sequence (P32783 whole entry Y416N/R422H, the tested form may be a part): as the sequence (P32783 whole entry L59P/Y416C, the tested form may be a part) above, with P59L, C416N, R422H counted along it
assay-procedure: Inhibition of GpppA methylation by ScAbd1-Y416N-R422H
Format: biochemical
recorded-conditions: ScAbd1-Y416N-R422H 250 nM, 100 μM SAM, 250 μM GpppA, 30°C, 20 min; read-out: SAH IC50
Description: Reactions (50 μl) were performed in triplicate by incubating 250 nM cap methyltransferases with 100 μM SAM and 250 μM GpppA or 2 mM GTP at 30°C in a buffer consisting of 200 mM NaCl, 50 mM Tris–HCl (pH 8.2), and 5 mM βME. […]
value-type: pIC50
Remember the convention: pIC50 equals -log10 of concentration in molar.

Fill in the recorded pIC50 for this compound, with ScAbd1-Y416N-R422H (Saccharomyces cerevisiae, UniProt P32783, R422H/Y416N) as test system: Nc1ncnc2c1ncn2[C@@H]1O[C@H](CSCC[C@H](N)C(=O)O)[C@@H](O)[C@H]1O [SAH, S-adenosylhomocysteine]
4.53

====

tested-system: ScAbd1-Y416A (Saccharomyces cerevisiae, UniProt P32783, Y416A)
Construct: aa 1–436); made in house; host or cells: Escherichia coli BL21 (DE3) CodonPlus RIL
Sequence (P32783 whole entry Y416A, the tested form may be a part): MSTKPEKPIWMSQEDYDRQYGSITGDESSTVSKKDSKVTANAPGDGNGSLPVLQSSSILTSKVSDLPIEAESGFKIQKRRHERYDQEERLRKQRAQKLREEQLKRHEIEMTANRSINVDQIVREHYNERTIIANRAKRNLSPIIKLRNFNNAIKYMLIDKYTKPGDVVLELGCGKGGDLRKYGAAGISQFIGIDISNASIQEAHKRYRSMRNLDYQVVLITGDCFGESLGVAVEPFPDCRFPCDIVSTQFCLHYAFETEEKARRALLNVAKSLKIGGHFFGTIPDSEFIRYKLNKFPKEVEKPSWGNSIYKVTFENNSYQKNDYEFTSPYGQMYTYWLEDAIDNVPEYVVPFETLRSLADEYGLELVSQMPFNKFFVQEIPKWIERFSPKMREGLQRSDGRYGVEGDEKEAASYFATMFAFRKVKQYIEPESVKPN
assay-procedure: Inhibition of GpppA methylation by ScAbd1-Y416A
Type: biochemical
recorded-conditions: ScAbd1-Y416A 250 nM, 100 μM SAM, 250 μM GpppA, 30°C, 20 min; read-out: SAH IC50
Description: Reactions (50 μl) were performed in triplicate by incubating 250 nM cap methyltransferases with 100 μM SAM and 250 μM GpppA or 2 mM GTP at 30°C in a buffer consisting of 200 mM NaCl, 50 mM Tris–HCl (pH 8.2), and 5 mM βME. […]
value-type: IC50
Remember to quote the unit after the number.

I am curious: what IC50 value has been reported for "Nc1ncnc2c1ncn2[C@@H]1O[C@H](CSCC[C@H](N)C(=O)O)[C@@H](O)[C@H]1O" ?
16.4 µM

====

tested-system: ScAbd1WT (Saccharomyces cerevisiae)
Construct: aa 1–436); made in house; host or cells: Escherichia coli BL21 (DE3) CodonPlus RIL
Sequence (P32783 whole entry, the tested form may be a part): as the sequence (P32783 whole entry Y416A, the tested form may be a part) above, with A416Y counted along it
assay-procedure: Inhibition of GpppA methylation by wild-type ScAbd1 (LC-MS/MS assay)
Format: biochemical
recorded-conditions: ScAbd1WT 250 nM, 100 μM SAM, 250 μM GpppA, 30°C, 20 min; read-out: SAH IC50
value-type: IC50 (µM)
The figure you give is taken to be in µM; do not add the unit.

Fill in the recorded IC50 for this compound, with ScAbd1WT (Saccharomyces cerevisiae) as test system: Nc1ncnc2c1ncn2[C@@H]1O[C@H](CSCC[C@H](N)C(=O)O)[C@@H](O)[C@H]1O [SAH, S-adenosylhomocysteine]
31.6

====

tested-system: ScAbd1-L59P-Y416C (Saccharomyces cerevisiae, UniProt P32783, L59P/Y416C)
Construct: aa 1–436); made in house; host or cells: Escherichia coli BL21 (DE3) CodonPlus RIL
assay-procedure: Inhibition of GpppA methylation by ScAbd1-L59P-Y416C
Type: biochemical
recorded-conditions: ScAbd1-L59P-Y416C 250 nM, 100 μM SAM, 250 μM GpppA, 30°C, 20 min; read-out: SFG IC50
value-type: pIC50
Remember the convention: pIC50 equals -log10 of concentration in molar.

I am curious: what pIC50 value has been reported for "Nc1ncnc2c1ncn2[C@@H]1O[C@H](C[C@@H](N)CC[C@H](N)C(=O)O)[C@@H](O)[C@H]1O" ?
5.87
